- Tested on: MS2 coat protein
- Test details: apparent KD of MS2 coat protein; designed switch direction (-1 OFF switch, 1 ON switch): 1; higher = weaker reporter binding
- Settings: Eterna round: R95; input ligand: none
Experimental readout: apparent KD of MS2 coat protein

Given item AUGGUGCAGGUACAGGAUAUGUUGCUCGUAACAUGAGGAUCACCCAUGUACCUAUGAGAUUAAAUGCAGAAGGGUGCACACCACU [Mat - Same State 2 - Mod of UCT - D89] (puzzle: Same State 2) , the value recorded as its apparent KD of MS2 coat protein is 158 nM

Note to self: apparent KD of MS2 coat protein recorded for AACCGACAUGAGGAUCACCCAUGUAAAUGCAGGGCAGGAUAUCAAUCGGGAGGCCGAAAAUGAGAAGGGCCUAAAA [Onedte] (puzzle: Same State 1) was 839 nM

# sequence ACAAGCUUUUUAGGAAGAGAAGAAAGGGAACAUGAGGAUCACCCAUGUAAGUGGAAUGAAGAAGGAGCACGUCUUAU [JR_SHM208A_Sub096] (puzzle: Sensor for hsa-mir-208a) ; its apparent KD of MS2 coat protein = 61 nM

Value of measured apparent KD of MS2 coat protein for the entry GGUCCAGCCUGAGCUGGACAAAAGCAUGUACAUGAGGAUCACCCAUGUCGUGUACAAGCUUUUUGCUCGUCUUAAAA [JL mod - D87 - 5] (puzzle: Sensor for hsa-mir-208a) : 296 nM

Reported apparent KD of MS2 coat protein ( UUCUCACAUGAGGAUCACCCAUGUGAGCCUCUGUGAGGAUAUCCGACAUAAUUAAUUGAAGGAGAAGGUACACGAG [Leer] (puzzle: Same State 1) ) = 24.9 nM

Consider AGCUAUCGAAAACGAUAGCAAAAGCAUGUACAUGAGGAUCACCCAUGUCAUGUAUAAGCUUUUUGCUCGUCUUAAAA [Zipper 23 - 12] (puzzle: Sensor for hsa-mir-208a) . Its measured apparent KD of MS2 coat protein is 34.4 nM

Notebook: GGGCCAGCUUUUGCUGGGCCUUCGCUUGCACAUGAGGAUCACCCAUGUCGUGUACACGCUUCCUGCCCGUCUUGUUU [Photon Torp-19] (puzzle: Sensor for hsa-mir-208a) , apparent KD of MS2 coat protein read as 24.6 nM

// apparent KD of MS2 coat protein value for CGGGUACAUGAGGAUCACCCAUGUGGGAGAGAUGCAGGAUAUGUGGGAAAAGGGAAUGUAACAGAAGGGCAAGGAG [JR_SS!_Sub015] (puzzle: Same State 1) : 124 nM

Item: GGCUAUCGCGUACGAUAGCUUAAGCAUGUACAUGAGGAUCACCCAUGUCAUGUACAAGCUUUUUGCUCGGCUUAUUG (puzzle: Sensor for hsa-mir-208a) | apparent KD of MS2 coat protein: 132 nM

Lookup result for GGAGAGAGAGCGCAGGAUAUUCGAGGAGAAACAUGAGGAUCACCCAUGUGAGAGAGAGAGGAGAAGGAGAAGGGUGAGAGAGAGG [Altered State 2-14 - Jieux - Same State 2] (puzzle: Same State 2) ; measured apparent KD of MS2 coat protein: 32.6 nM

Given item AUAAGUUCGAUGCUCGUCUCUCCGUACAAACAUGAGGAUCACCCAUGUGGCCGGGAAGUAGCCCGACCAGUAUGGCC [Tearbeorve] (puzzle: Sensor for hsa-mir-208a) , the value recorded as its apparent KD of MS2 coat protein is 45.2 nM
